Data provenance is ChEMBL document CHEMBL1133548.

assay: Percent of relative potency by NADH oxidase assay

Molecule: CCCCCCCCCC[C@H](O)[C@H]1CC[C@@H]([C@@H]2CC[C@H]([C@H](O)CCCCCCCCCC[C@@H](O)CC3=C[C@H](C)OC3=O)O2)O1 [rolliniastatin-1]
Relative potency: 41.7
//
Molecule: CCCCCCCCCC[C@H](O)[C@H]1CC[C@@H]([C@@H]2CC[C@H]([C@H](O)CCCCCCCCCCC(=O)CC3=C[C@H](C)OC3=O)O2)O1
Relative potency: 59.5
//
Molecule: CCCCCCCCCC/C(=N\O)[C@H]1CC[C@@H]([C@@H]2CC[C@H]([C@H](O)CCCCCCCCCC/C(CC3=C[C@H](C)OC3=O)=N\O)O2)O1
Relative potency: 73.5
//
Molecule: CCCCCCCCCCC(=O)[C@H]1CC[C@@H]([C@@H]2CC[C@H]([C@H](O)CCCCCCCCCCC(=O)CC3=C[C@H](C)OC3=O)O2)O1
Relative potency: 73.5
//
Molecule: CCCCCC[C@H](O)CCC[C@H](O)[C@H]1CC[C@H]([C@H]2CC[C@H]([C@H](O)CCCCCCCCCCCCC3=C[C@H](C)OC3=O)O2)O1 [SQUAMOCIN]
Relative potency: 42.3

---

assay: Inhibition of NADH decylubiquinone (DB) oxidoreductase activity.; set-up: species or system Bos taurus

Compound: CCCCCCCCCC[C@H](O)[C@H]1CC[C@@H]([C@@H]2CC[C@H]([C@H](O)CCCCCCCC[C@@H](O)CC3=C[C@H](C)OC3=O)O2)O1
IC50 (nM): 0.83
--
Compound: CCCCCC[C@H](CCC[C@@H](N=[N+]=[N-])[C@H]1CC[C@H]([C@H]2CC[C@H]([C@H](CCCCCCCCCCCCC3=C[C@H](C)OC3=O)N=[N+]=[N-])O2)O1)N=[N+]=[N-]
IC50 (nM): 315
--
Compound: CCCCCCCCCC[C@H](O)[C@H]1CC[C@H]([C@H]2CC[C@H]([C@H](O)CCCCC(=O)CCCCCCCC3=C[C@H](C)OC3=O)O2)O1
IC50 (nM): 2.1
--
Compound: CCCCCC[C@@H](CCC[C@H](OS(C)(=O)=O)[C@H]1CC[C@H]([C@H]2CC[C@H]([C@@H](CCCCCCCCCCCCC3=C[C@H](C)OC3=O)OS(C)(=O)=O)O2)O1)OS(C)(=O)=O
IC50 (nM): 2040
--
Compound: CCCCCC(CCCC[C@H](OC(C)=O)[C@H]1CC[C@H]([C@H]2CC[C@H]([C@@H](CCCCCCCCCCCCC3=C[C@H](C)OC3=O)OC(C)=O)O2)O1)OC(C)=O (stereo not given in full)
IC50 (nM): 248

---

experiment: Inhibition of NADH decylubiquinone (DB) oxidoreductase activity.; parameters: species or system Bos taurus
Property label: IC50 (nM)

Molecule: CCCCCCCCCC[C@H](O)[C@H]1CC[C@H]([C@H]2CC[C@H]([C@H](O)CCCCCCCCCCCCC3=C[C@H](C)OC3=O)O2)O1
Property label: IC50
Recorded value: 0.44
//
Molecule: CCCCC[C@H](O)CCCC[C@H](O)[C@H]1CC[C@H]([C@H]2CC[C@H]([C@H](O)CCCCCCCCCCCCC3=C[C@H](C)OC3=O)O2)O1
Property label: IC50
Recorded value: 0.81
//
Molecule: CCCCCCCCCC[C@H](O)[C@H]1CC[C@@H]([C@@H]2CC[C@H]([C@H](O)CCCCCCCCCC/C(CC3=C[C@H](C)OC3=O)=N\O)O2)O1
Property label: IC50
Recorded value: 0.29
//
Molecule: CCCCCCCCCC[C@@H](O)[C@@H]1CC[C@@H]([C@@H]2CC[C@@H]([C@H](O)CCCCCCCCCC(O)CC3=CC(C)OC3=O)O2)O1 (stereo partly drawn)
Property label: IC50
Recorded value: 0.61
//
Molecule: CCCCCCCCCC[C@H](O)[C@H]1CC[C@H]([C@H]2CC[C@H]([C@H](O)CCCCC(O)CCCCCCCC3=C[C@H](C)OC3=O)O2)O1 (stereo partly drawn)
Property label: IC50
Recorded value: 1.9
//
Molecule: CCCCCCCCCC[C@H](OS(C)(=O)=O)[C@H]1CC[C@@H]([C@@H]2CC[C@H]([C@@H](CCCCCCCCCC[C@H](CC3=C[C@H](C)OC3=O)OS(C)(=O)=O)OS(C)(=O)=O)O2)O1
Property label: IC50
Recorded value: 438
//
Molecule: CCCCCC/C(CCC[C@H](O)[C@H]1CC[C@H]([C@H]2CC[C@H]([C@H](O)CCCCCCCCCCCCC3=C[C@H](C)OC3=O)O2)O1)=N\O
Property label: IC50
Recorded value: 0.9
//
Molecule: CCCCCCCCCCC(=O)[C@H]1CC[C@H]([C@H]2CC[C@H](C(=O)CCCCC(=O)CCCCCCCC3=C[C@H](C)OC3=O)O2)O1
Property label: IC50
Recorded value: 2.5
//
Molecule: CCCCCC[C@@H](CCC[C@H](OC(C)=O)[C@H]1CC[C@H]([C@H]2CC[C@H]([C@@H](CCCCCCCCCCCCC3=C[C@H](C)OC3=O)OC(C)=O)O2)O1)OC(C)=O
Property label: IC50
Recorded value: 2940
//
Molecule: CCCCCCC(=O)CCC[C@H](O)[C@H]1CC[C@H]([C@H]2CC[C@H]([C@H](O)CCCCCCCCCCCCC3=C[C@H](C)OC3=O)O2)O1
Property label: IC50
Recorded value: 1.3
//
Molecule: CCCCCCCCCC/C(=N\O)[C@H]1CC[C@@H]([C@@H]2CC[C@H]([C@H](O)CCCCCCCCCC/C(CC3=C[C@H](C)OC3=O)=N\O)O2)O1
Property label: IC50
Recorded value: 0.39
//
Molecule: CCCCCCCCCC[C@H](OC(C)=O)[C@H]1CC[C@@H]([C@@H]2CC[C@H]([C@@H](CCCCCCCCCC[C@H](CC3=C[C@H](C)OC3=O)OC(C)=O)OC(C)=O)O2)O1
Property label: IC50
Recorded value: 1890
//
Molecule: CCCCCC(CCCC[C@H](OS(C)(=O)=O)[C@H]1CC[C@H]([C@H]2CC[C@H]([C@@H](CCCCCCCCCCCCC3=C[C@H](C)OC3=O)OS(C)(=O)=O)O2)O1)OS(C)(=O)=O (stereo partly drawn)
Property label: IC50
Recorded value: 64

---

target: Mitochondrial complex I; NADH oxidoreductase (Bos taurus, UniProt P25708+P52505); test: Inhibition of NADH oxidase activity.
Sequence (P25708 21-464 limits assumed, other chains not shown): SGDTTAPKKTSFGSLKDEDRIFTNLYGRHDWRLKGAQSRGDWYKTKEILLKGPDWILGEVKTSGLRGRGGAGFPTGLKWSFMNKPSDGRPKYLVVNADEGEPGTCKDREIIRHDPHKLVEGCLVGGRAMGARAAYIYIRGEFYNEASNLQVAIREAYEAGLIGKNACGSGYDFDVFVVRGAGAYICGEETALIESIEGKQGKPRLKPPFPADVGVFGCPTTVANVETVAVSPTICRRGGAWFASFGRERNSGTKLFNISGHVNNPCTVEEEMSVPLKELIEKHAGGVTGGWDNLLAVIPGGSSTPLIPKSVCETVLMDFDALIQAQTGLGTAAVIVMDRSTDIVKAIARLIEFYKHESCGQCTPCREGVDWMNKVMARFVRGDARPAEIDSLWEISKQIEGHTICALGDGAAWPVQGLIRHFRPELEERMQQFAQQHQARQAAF
pIC50: −log10 of the molar value.
Measured pIC50 values are reported for all entries that follow.

Compound: CCCCCCCCCC[C@@H](O)[C@@H]1CC[C@@H]([C@@H]2CC[C@@H]([C@H](O)CCCCCCCCCC(O)CC3=CC(C)OC3=O)O2)O1 (stereo partly drawn) [BULLATACIN]
Experimental target: Mitochondrial complex I; NADH oxidoreductase (Bos taurus, UniProt P25708+P52505)
pIC50: 9.29
//
Compound: CCCCCCCCCC[C@H](O)[C@H]1CC[C@H]([C@H]2CC[C@H]([C@H](O)CCCCCCCCCCCCC3=C[C@H](C)OC3=O)O2)O1 [BULLANIN]
Experimental target: Mitochondrial complex I; NADH oxidoreductase (Bos taurus, UniProt P25708+P52505)
pIC50: 9.49
//
Compound: CCCCCCCCCC[C@H](OC(C)=O)[C@H]1CC[C@@H]([C@@H]2CC[C@H]([C@@H](CCCCCCCCCC[C@H](CC3=C[C@H](C)OC3=O)OC(C)=O)OC(C)=O)O2)O1
Experimental target: Mitochondrial complex I; NADH oxidoreductase (Bos taurus, UniProt P25708+P52505)
pIC50: 8.84

---

molecular target: Mitochondrial complex I; NADH oxidoreductase (Bos taurus, UniProt P25708+P52505); test: Inhibition of NADH oxidase activity.
Measured IC50 values are reported for all entries that follow.

Molecule: CCCCCCCCCC[C@H](O)[C@H]1CC[C@H]([C@H]2CC[C@H]([C@H](O)CCCCC(=O)CCCCCCCC3=C[C@H](C)OC3=O)O2)O1
IC50 / nM: 1.52
//
Molecule: CCCCCCCCCC[C@H](OS(C)(=O)=O)[C@H]1CC[C@@H]([C@@H]2CC[C@H]([C@@H](CCCCCCCCCC[C@H](CC3=C[C@H](C)OC3=O)OS(C)(=O)=O)OS(C)(=O)=O)O2)O1
IC50 / nM: 1.68
//
Molecule: CCCCCC(CCCC[C@H](OS(C)(=O)=O)[C@H]1CC[C@H]([C@H]2CC[C@H]([C@@H](CCCCCCCCCCCCC3=C[C@H](C)OC3=O)OS(C)(=O)=O)O2)O1)OS(C)(=O)=O (stereo not given in full)
IC50 / nM: 2.9
//
Molecule: CCCCCCCCCC[C@H](O)[C@H]1CC[C@H]([C@H]2CC[C@H]([C@H](O)CCCC/C(CCCCCCCC3=C[C@H](C)OC3=O)=N\O)O2)O1
IC50 / nM: 0.34
//
Molecule: CCCCC[C@H](O)CCCC[C@H](O)[C@H]1CC[C@H]([C@H]2CC[C@H]([C@H](O)CCCCCCCCCCCCC3=C[C@H](C)OC3=O)O2)O1
IC50 / nM: 0.41
